# experimental protocol: Single oral pharmacokinetics of the free form in suspension in male rats
# Format: in vivo, male Sprague Dawley rats
# condition: male, Sprague Dawley, rat, plasma, po, male rats; 1 to 600 mg/kg oral dose range; read-out: terminal half-life
# Experimental: The pharmacokinetics of Compound 1 were assessed in the same species used in the toxicology studies: CD-1 mice, Sprague Dawley rats and beagle dogs. The pharmacokinetics of Compound 1 were also assessed in cynomolgus monkeys. Non-validated research grade assays were used for these analyses. All pharmacokinetic studies were conducted using fed animals unless otherwise specified. At 600 mg/kg, the increase in systemic exposure was less than proportional to the increase in dose. […]
readout: half-life

> print(dat)
                            smiles.notation           val
1  Cc1ccc(NC(=O)C2(c3ccc4c(c3)OC(F)(F)O4)CC2)nc1-c1cccc(C(=O)O)c1  5.9 to 8.1 h

Values were extracted from patent US20090176839A1.
